assaySystem: recombinant human MMP-2 (Homo sapiens (Human), UniProt P08253)
Sequence (P08253 110-660): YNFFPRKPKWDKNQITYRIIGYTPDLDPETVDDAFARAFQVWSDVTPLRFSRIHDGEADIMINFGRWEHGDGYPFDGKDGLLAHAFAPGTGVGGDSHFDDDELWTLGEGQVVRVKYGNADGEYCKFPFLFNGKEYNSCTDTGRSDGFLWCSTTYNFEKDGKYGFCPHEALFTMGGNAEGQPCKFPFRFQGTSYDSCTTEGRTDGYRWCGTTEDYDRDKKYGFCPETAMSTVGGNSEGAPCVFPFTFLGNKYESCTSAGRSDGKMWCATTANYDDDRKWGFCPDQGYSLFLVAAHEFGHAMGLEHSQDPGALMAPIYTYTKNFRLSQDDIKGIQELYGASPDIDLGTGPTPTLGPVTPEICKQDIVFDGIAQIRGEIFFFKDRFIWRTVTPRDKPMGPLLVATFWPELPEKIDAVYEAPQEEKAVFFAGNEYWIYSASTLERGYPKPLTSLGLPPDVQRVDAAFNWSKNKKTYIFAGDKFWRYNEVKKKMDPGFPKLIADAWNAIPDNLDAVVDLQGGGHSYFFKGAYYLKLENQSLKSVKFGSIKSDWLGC
protocolDetails: MMP selectivity assay, MMP-2
cond: Table 2 selectivity profile; read-out: IC50, Target: MMP 2
pIC50: −log10 of the molar value.
Reported pIC50 values are given for each entry in this list.

stdin: Check the records and state pIC50 for Cc1cc(C#Cc2ccc(Sc3ccncc3C3NC(=O)NC3=O)cc2)ccn1 (centres unmarked)
stdout: < 7.00

====

assaySystem: recombinant human MMP-3 (Homo sapiens (Human))
Sequence (P08254 100-477): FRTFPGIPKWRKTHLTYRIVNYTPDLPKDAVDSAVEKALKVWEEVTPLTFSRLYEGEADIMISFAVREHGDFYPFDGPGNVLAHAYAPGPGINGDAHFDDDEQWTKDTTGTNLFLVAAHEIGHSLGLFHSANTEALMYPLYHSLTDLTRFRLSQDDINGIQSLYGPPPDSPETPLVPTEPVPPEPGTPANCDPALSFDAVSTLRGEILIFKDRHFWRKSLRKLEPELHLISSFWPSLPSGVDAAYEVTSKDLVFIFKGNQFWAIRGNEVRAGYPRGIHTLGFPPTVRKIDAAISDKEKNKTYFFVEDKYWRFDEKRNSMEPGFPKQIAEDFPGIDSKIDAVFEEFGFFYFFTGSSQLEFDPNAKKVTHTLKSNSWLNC
protocolDetails: MMP selectivity assay, MMP-3
cond: Table 2 selectivity profile; read-out: IC50, Target: MMP 3
pIC50: −log10 of the molar value.
experimentalEndpoint: pIC50

Some solved cases for reference:
* Cc1cc(/C=C/c2ccc(Sc3ccsc3C3NC(=O)NC3=O)cc2)ccn1 (centres unmarked) | 7.00 to 8.00
* Cc1cc(/C=C/c2ccc(Sc3ccoc3C3NC(=O)NC3=O)cc2)ccn1 (centres unmarked) | 7.00 to 8.00
* Cc1cc(C#Cc2ccc(Sc3ccncc3C3NC(=O)NC3=O)cc2)ccn1 (centres unmarked) | < 7.00
* Cc1cc(C#Cc2ccc(Sc3ccsc3C3NC(=O)NC3=O)cc2)ccn1 (centres unmarked) | < 7.00

Alright, here's another compound for you.
stdin: Check the records and state pIC50 for Cc1cc(/C=C/c2ccc(Sc3cnn(C)c3C3NC(=O)NC3=O)cc2)ccn1 (centres unmarked)
stdout: < 7.00

====

assaySystem: recombinant human MMP-2 (Homo sapiens (Human), UniProt P08253)
protocolDetails: MMP selectivity assay, MMP-2
cond: Table 2 selectivity profile; read-out: IC50, Target: MMP 2
pIC50: −log10 of the molar value.
Reported pIC50 values are given for each entry in this list.

- Cc1cc(/C=C/c2ccc(Sc3cnn(C)c3C3NC(=O)NC3=O)cc2)ccn1 (stereo not shown): 8.00 to 9.00

stdin: Check the records and state pIC50 for Cc1cc(C#Cc2ccc(Sc3ccoc3C3NC(=O)NC3=O)cc2)ccn1 (stereo not shown)
stdout: < 7.00

stdin: Check the records and state pIC50 for Cc1cc(/C=C/c2ccc(Sc3ccncc3C3NC(=O)NC3=O)cc2)ccn1 (stereo not shown)
stdout: 7.00 to 8.00

stdin: Check the records and state pIC50 for Cc1cc(C#Cc2ccc(Sc3cnn(C)c3C3NC(=O)NC3=O)cc2)ccn1 (stereo not shown)
stdout: 7.00 to 8.00

stdin: Check the records and state pIC50 for Cc1cc(C#Cc2ccc(Oc3ccncc3C3NC(=O)NC3=O)cc2)ccn1 (stereo not shown)
stdout: < 7.00

stdin: Check the records and state pIC50 for CCC1(c2occc2Sc2ccc(/C=C/c3ccnc(C)c3)cc2)NC(=O)NC1=O (stereo not shown)
stdout: 8.00 to 9.00

stdin: Check the records and state pIC50 for Cc1cc(/C=C/c2ccc(Sc3ccsc3C3NC(=O)NC3=O)cc2)ccn1 (stereo not shown)
stdout: 8.00 to 9.00

stdin: Check the records and state pIC50 for Cc1cc(C#Cc2ccc(Sc3ccsc3C3NC(=O)NC3=O)cc2)ccn1 (stereo not shown)
stdout: 7.00 to 8.00

stdin: Check the records and state pIC50 for Cc1cc(/C=C/c2ccc(Oc3ccncc3C3NC(=O)NC3=O)cc2)ccn1 (stereo not shown)
stdout: 7.00 to 8.00

stdin: Check the records and state pIC50 for Cc1cc(/C=C/c2ccc(Sc3ccoc3C3NC(=O)NC3=O)cc2)ccn1 (stereo not shown)
stdout: 8.00 to 9.00
